Entry source: patent US7713994B2

# TEST SYSTEM: cyclin D1/cdk 4 enzyme (Homo sapiens)
# Construct: made in house; host or cells: Sf9 insect cells, recombinant baculovirus
# Sequence (P11802 whole entry, species assumed): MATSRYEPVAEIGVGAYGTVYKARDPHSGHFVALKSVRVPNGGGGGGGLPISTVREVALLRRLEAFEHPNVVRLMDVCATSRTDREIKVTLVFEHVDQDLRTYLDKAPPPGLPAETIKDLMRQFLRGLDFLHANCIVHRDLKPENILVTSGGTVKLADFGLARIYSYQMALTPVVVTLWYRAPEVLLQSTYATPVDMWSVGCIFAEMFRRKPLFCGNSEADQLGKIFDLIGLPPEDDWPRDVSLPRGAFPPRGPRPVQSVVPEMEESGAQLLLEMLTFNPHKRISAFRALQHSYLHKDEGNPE
# Sequence (P24385 whole entry partner, species assumed): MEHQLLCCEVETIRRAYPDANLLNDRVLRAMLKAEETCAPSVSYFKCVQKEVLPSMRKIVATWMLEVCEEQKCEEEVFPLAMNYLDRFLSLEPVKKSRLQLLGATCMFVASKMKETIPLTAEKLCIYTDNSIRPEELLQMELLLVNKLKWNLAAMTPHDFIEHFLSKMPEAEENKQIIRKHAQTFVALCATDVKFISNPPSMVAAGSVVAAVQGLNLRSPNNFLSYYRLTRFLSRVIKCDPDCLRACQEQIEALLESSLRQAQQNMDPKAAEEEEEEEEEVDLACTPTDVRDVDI
# PROTOCOL: CDK4 ELISA kinase assay (phospho-Rb ser 795 detection)
# Assay type: biochemical
# CONDITION DETAILS: In Vitro Enzyme Assays, 200 μM ATP, read-out: CDK4 IC50
OBSERVABLE: pIC50
In simple prose, pIC50 is minus the logarithm base ten of a concentration in moles per litre.

Record excerpt, results attached:
1) O=C1NC(=O)c2ccc(-c3ccc(C(F)(F)F)cc3)cc2/C1=C/Nc1ccc(CN2CCCC2)cc1 :: 4.56
2) CC(=O)Nc1ccc(CN/C=C2\C(=O)NC(=O)c3ccc(Br)cc32)cc1O :: 7.70
3) COc1coc(CNC=C2C(=O)NC(=O)c3ccc(-n4cccc4)cc32)cc1=O :: 7.40
4) COc1ccc2c(c1)/C(=C/NCc1ccc(OC)c(O)c1)C(=O)NC2=O :: 7.51
5) CN1CCN(c2ccc(N/C=C3\C(=O)NC(=O)c4ccc(-c5ccoc5)cc43)nc2)CC1 :: 6.89
6) CN(C)NC(=O)c1ccc(N/C=C2\C(=O)NC(=O)c3ccc(Br)cc32)cc1 :: 4.54

[ask] Form entry - test system: cyclin D1/cdk 4 enzyme (Homo sapiens); read-out: pIC50; compound: O=C1NC(=O)c2ccc(Br)cc2/C1=C/NCCCN1CCCC1
[reply] 4.83

[ask] What is its pIC50 for cyclin D1/cdk 4 enzyme (Homo sapiens)? Entry: COc1ccc(-c2ccc3c(c2)/C(=C/Nc2ccc(N4C[C@@H](C)N[C@@H](C)C4)c(F)c2)C(=O)NC3=O)cc1
[reply] 4.81

[ask] Request - read-out pIC50 | tested on cyclin D1/cdk 4 enzyme (Homo sapiens) | compound CC1CCCN1Cc1ccc(N/C=C2\C(=O)NC(=O)c3ccc(-c4ccc(F)cc4)cc32)cc1 (stereo not shown)
[reply] 6.51

[ask] Write down the reported pIC50 of O=C1NC(=O)c2ccc(/C=C/CCCCl)cc2/C1=C/Nc1ccc(CN2CCCCC2)cc1 , test system: cyclin D1/cdk 4 enzyme (Homo sapiens).
[reply] 5.54

----------
# Tested on: LoVo
# PROTOCOL: Cytotoxicity assay (SRB), LoVo
# Format: cell-based
# CONDITION DETAILS: Homo sapiens, LoVo, 72 h, LoVo cells, 3 days, SRB; read-out: In Vitro Cellular Activity IC50 LOVO
OBSERVABLE: IC50 (µM)
Just the number in µM, nothing appended.

Solved entries:
1. O=C1NC(=O)c2ccc(-c3cccc4cccnc34)cc2C1=CNCc1ccc(O)c(O)c1 [Example 642] :: 12.1
2. NS(=O)(=O)c1ccc(CNC=C2C(=O)NC(=O)c3ccc(-c4ccc5ccccc5c4)cc32)cc1 [Example 632] :: 44.6
3. CC(C)N1CCN(c2ccc(N/C=C3\C(=O)NC(=O)c4ccc(Br)cc43)nc2)CC1 [Example 486] :: 7.56

[ask] Bench note: what IC50 did O=C1NC(=O)c2ccc(-c3ccc(Cl)s3)cc2/C1=C/Nc1ccc(CN2CCC[C@H]2CO)cc1 [Example 441] show?
[reply] 2.9

----------
# System: HCT-116
# PROTOCOL: Cytotoxicity assay (SRB), HCT-116
# Format: cell-based
# CONDITION DETAILS: Homo sapiens, HCT-116, 72 h, HCT116 cells, 3 days, SRB; read-out: In Vitro Cellular Activity IC50 HCT116
Measured IC50 by item
Kindly answer with a numeric value in µM, unit omitted.

1. COc1ccc(-c2ccc3c(c2)C(=CNc2ccc(N4CCN(C)CC4)cc2)C(=O)NC3=O)cc1 [Example 682] :: 1.5
2. CC(C)N1CCN(c2ccc(N/C=C3\C(=O)NC(=O)c4ccc(-c5ccoc5)cc43)nc2)CC1 [Example 488] :: 3.16
3. CN1CCN(c2ccc(N/C=C3\C(=O)NC(=O)c4ccc(-c5coc(C=O)c5)cc43)nc2)CC1 [Example 448] :: 2.4
4. O=C1NC(=O)c2ccc(I)cc2/C1=C/Nc1ccc(N2CCN(Cc3ccoc3)CC2)cc1 [Example 390] :: 17
5. CN(C)C1CCN(Cc2ccc(N/C=C3\C(=O)NC(=O)c4ccc(I)cc43)cc2)C1 (stereo not shown) [Example 422] :: 2

[ask] Which IC50 value is on record for COC[C@@H]1CCCN1Cc1ccc(N/C=C2\C(=O)NC(=O)c3ccc(-c4ccco4)cc32)cc1 [Example 467] ?
[reply] 2.3

[ask] Fill blank: measured IC50 of the molecule CN1CCN(c2ccc(NC=C3C(=O)NC(=O)c4ccc(-c5cc6ccccc6o5)cc43)cc2)CC1 [Example 669] is ____.
[reply] 2.9

[ask] Please look up its IC50: CN1CCN(c2ccc(NC=C3C(=O)NCc4cc(-c5cccs5)ccc43)cc2)CC1 [Example 848]
[reply] 7.1

[ask] Entry under review: Cc1ccc(-c2ccc3c(c2)C(=CNCc2ccc(S(N)(=O)=O)cc2)C(=O)NC3=O)cc1 [Example 752] . Reported IC50?
[reply] 14.8

[ask] Name the reported IC50 value associated with the molecule O=C1NC(=O)c2ccc(-c3ccsc3)cc2/C1=C/Nc1ccc(N2CCN(CC3CC3)CC2)nc1 [Example 418]
[reply] 1.4
